- Test system: MONO-MAC-6
- experiment: Antiproliferative activity against human MONO-MAC-6 cells assessed as inhibition of cell viability at 10^-8 M after 48 hrs by cell counting method
- Format: functional
- experimental-setup: MONO-MAC-6, 48 h, values are per cent of control
Overview of recorded viability, % of control at 0.01 µM for various molecules
Return type: number; implicit unit %.

// solved cases for viability, % of control at 0.01 µM follow
CN(Cc1cnc2nc(N)nc(N)c2n1)c1ccc(C(=O)N[C@@H](CCC(=O)O)C(=O)O)cc1 [METHOTREXATE]: 94
COc1cccc2c1C(=O)c1c(O)c3c(c(O)c1C2=O)C[C@@](O)(/C(C)=N/OCC(=O)NCCCC[C@H](NC(=O)[C@H](CCC(=O)O)NC(=O)c1ccc(N(C)Cc2cnc4nc(N)nc(N)c4n2)cc1)C(=O)NCCCC[C@H](NC(=O)[C@H](Cc1c[nH]c2ccccc12)NC(=O)[C@H](CC(=O)O)NC(=O)[C@H](Cc1cnc[nH]1)NC(=O)[C@H](CO)NC(=O)[C@H](Cc1c[nH]c2ccccc12)NC(=O)[C@H](Cc1cnc[nH]1)NC(=O)[C@@H]1CCC(=O)N1)C(=O)N1CCC[C@H]1C(=O)NCC(N)=O)C[C@@H]3O[C@H]1C[C@H](N)[C@H](O)[C@H](C)O1: 91

Read the next record carefully.
Query: viability, % of control at 0.01 µM; subject: COc1cccc2c1C(=O)c1c(O)c3c(c(O)c1C2=O)C[C@@](O)(C(C)=O)C[C@@H]3O[C@H]1C[C@H](N)[C@H](O)[C@H](C)O1
35

###

Each entry below carries its recorded IC50.
- Test system: HT-29
- experiment: Cytostatic activity against human HT-29 cells after 4 days by MTT assay
- Format: functional, cell-based
- experimental-setup: HT-29, 96 h
Your answer should be a plain number; it is taken to be in µM.

Examples from the recorded data:
COc1cccc2c1C(=O)c1c(O)c3c(c(O)c1C2=O)C[C@@](O)(/C(C)=N/OCC(=O)NCCCC[C@H](NC(=O)[C@H](Cc1c[nH]c2ccccc12)NC(=O)[C@H](CC(=O)O)NC(=O)[C@H](Cc1cnc[nH]1)NC(=O)[C@H](CCCCNC(=O)[C@H](CCC(=O)O)NC(=O)c1ccc(N(C)Cc2cnc4nc(N)nc(N)c4n2)cc1)NC(=O)[C@H](Cc1c[nH]c2ccccc12)NC(=O)[C@H](Cc1cnc[nH]1)NC(=O)[C@@H]1CCC(=O)N1)C(=O)N1CCC[C@H]1C(=O)NCC(N)=O)C[C@@H]3O[C@H]1C[C@H](N)[C@H](O)[C@H](C)O1: 3.6
CN(Cc1cnc2nc(N)nc(N)c2n1)c1ccc(C(=O)N[C@@H](CCC(=O)O)C(=O)O)cc1 [METHOTREXATE]: 1.4
COc1cccc2c1C(=O)c1c(O)c3c(c(O)c1C2=O)C[C@@](O)(C(C)=O)C[C@@H]3O[C@H]1C[C@H](N)[C@H](O)[C@H](C)O1: 0.2

IC50 for COc1cccc2c1C(=O)c1c(O)c3c(c(O)c1C2=O)C[C@@](O)(/C(C)=N/OCC(=O)NCCCC[C@H](NC(=O)[C@H](CCC(=O)O)NC(=O)c1ccc(N(C)Cc2cnc4nc(N)nc(N)c4n2)cc1)C(=O)NCCCC[C@H](NC(=O)[C@H](Cc1c[nH]c2ccccc12)NC(=O)[C@H](CC(=O)O)NC(=O)[C@H](Cc1cnc[nH]1)NC(=O)[C@H](CO)NC(=O)[C@H](Cc1c[nH]c2ccccc12)NC(=O)[C@H](Cc1cnc[nH]1)NC(=O)[C@@H]1CCC(=O)N1)C(=O)N1CCC[C@H]1C(=O)NCC(N)=O)C[C@@H]3O[C@H]1C[C@H](N)[C@H](O)[C@H](C)O1 ?
5.6

###

- Test system: MONO-MAC-6
- experiment: Antiproliferative activity against human MONO-MAC-6 cells assessed as inhibition of cell viability at 10^-8 M after 72 hrs by cell counting method
- Assay type: functional
- experimental-setup: MONO-MAC-6, 72 h, values are per cent of control
assay-metric: viability, % of control at 0.01 µM

Consider the worked cases shown below.
COc1cccc2c1C(=O)c1c(O)c3c(c(O)c1C2=O)C[C@@](O)(C(C)=O)C[C@@H]3O[C@H]1C[C@H](N)[C@H](O)[C@H](C)O1: 17%
COc1cccc2c1C(=O)c1c(O)c3c(c(O)c1C2=O)C[C@@](O)(/C(C)=N/OCC(=O)NCCCC[C@H](NC(=O)[C@H](CCC(=O)O)NC(=O)c1ccc(N(C)Cc2cnc4nc(N)nc(N)c4n2)cc1)C(=O)NCCCC[C@H](NC(=O)[C@H](Cc1c[nH]c2ccccc12)NC(=O)[C@H](CC(=O)O)NC(=O)[C@H](Cc1cnc[nH]1)NC(=O)[C@H](CO)NC(=O)[C@H](Cc1c[nH]c2ccccc12)NC(=O)[C@H](Cc1cnc[nH]1)NC(=O)[C@@H]1CCC(=O)N1)C(=O)N1CCC[C@H]1C(=O)NCC(N)=O)C[C@@H]3O[C@H]1C[C@H](N)[C@H](O)[C@H](C)O1: 97%
COc1cccc2c1C(=O)c1c(O)c3c(c(O)c1C2=O)C[C@@](O)(/C(C)=N/OCC(=O)NCCCC[C@H](NC(=O)[C@H](Cc1c[nH]c2ccccc12)NC(=O)[C@H](CC(=O)O)NC(=O)[C@H](Cc1cnc[nH]1)NC(=O)[C@H](CCCCNC(=O)[C@H](CCC(=O)O)NC(=O)c1ccc(N(C)Cc2cnc4nc(N)nc(N)c4n2)cc1)NC(=O)[C@H](Cc1c[nH]c2ccccc12)NC(=O)[C@H](Cc1cnc[nH]1)NC(=O)[C@@H]1CCC(=O)N1)C(=O)N1CCC[C@H]1C(=O)NCC(N)=O)C[C@@H]3O[C@H]1C[C@H](N)[C@H](O)[C@H](C)O1: 103%

Query (molecule): CN(Cc1cnc2nc(N)nc(N)c2n1)c1ccc(C(=O)N[C@@H](CCC(=O)O)C(=O)O)cc1 [METHOTREXATE] ; field requested: viability, % of control at 0.01 µM
60%

###

- Test system: MONO-MAC-6
- experiment: Antiproliferative activity against human MONO-MAC-6 cells assessed as inhibition of cell viability at 10^-8 M after 48 hrs by cell counting method
- Format: functional
- experimental-setup: MONO-MAC-6, 48 h, values are per cent of control
assay-metric: viability, % of control at 0.01 µM (%)
Numbers only; they are read as %.

Which value of viability, % of control at 0.01 µM has been reported for COc1cccc2c1C(=O)c1c(O)c3c(c(O)c1C2=O)C[C@@](O)(/C(C)=N/OCC(=O)NCCCC[C@H](NC(=O)[C@H](Cc1c[nH]c2ccccc12)NC(=O)[C@H](CC(=O)O)NC(=O)[C@H](Cc1cnc[nH]1)NC(=O)[C@H](CCCCNC(=O)[C@H](CCC(=O)O)NC(=O)c1ccc(N(C)Cc2cnc4nc(N)nc(N)c4n2)cc1)NC(=O)[C@H](Cc1c[nH]c2ccccc12)NC(=O)[C@H](Cc1cnc[nH]1)NC(=O)[C@@H]1CCC(=O)N1)C(=O)N1CCC[C@H]1C(=O)NCC(N)=O)C[C@@H]3O[C@H]1C[C@H](N)[C@H](O)[C@H](C)O1 in the records?
92

###

- System: MONO-MAC-6
- experiment: Antiproliferative activity against human MONO-MAC-6 cells assessed as inhibition of cell viability at 10^-9 M after 72 hrs by cell counting method
- Assay type: functional
- experimental-setup: MONO-MAC-6, 72 h, values are per cent of control
assay-metric: viability, % of control at 0.001 µM (%)
The answer is to be given in %; state only the numeric part.

COc1cccc2c1C(=O)c1c(O)c3c(c(O)c1C2=O)C[C@@](O)(/C(C)=N/OCC(=O)NCCCC[C@H](NC(=O)[C@H](Cc1c[nH]c2ccccc12)NC(=O)[C@H](CC(=O)O)NC(=O)[C@H](Cc1cnc[nH]1)NC(=O)[C@H](CCCCNC(=O)[C@H](CCC(=O)O)NC(=O)c1ccc(N(C)Cc2cnc4nc(N)nc(N)c4n2)cc1)NC(=O)[C@H](Cc1c[nH]c2ccccc12)NC(=O)[C@H](Cc1cnc[nH]1)NC(=O)[C@@H]1CCC(=O)N1)C(=O)N1CCC[C@H]1C(=O)NCC(N)=O)C[C@@H]3O[C@H]1C[C@H](N)[C@H](O)[C@H](C)O1: 81
CN(Cc1cnc2nc(N)nc(N)c2n1)c1ccc(C(=O)N[C@@H](CCC(=O)O)C(=O)O)cc1 [METHOTREXATE]: 96
COc1cccc2c1C(=O)c1c(O)c3c(c(O)c1C2=O)C[C@@](O)(C(C)=O)C[C@@H]3O[C@H]1C[C@H](N)[C@H](O)[C@H](C)O1: 21

Now examine the next entry.
Which viability, % of control at 0.001 µM is listed for COc1cccc2c1C(=O)c1c(O)c3c(c(O)c1C2=O)C[C@@](O)(/C(C)=N/OCC(=O)NCCCC[C@H](NC(=O)[C@H](CCC(=O)O)NC(=O)c1ccc(N(C)Cc2cnc4nc(N)nc(N)c4n2)cc1)C(=O)NCCCC[C@H](NC(=O)[C@H](Cc1c[nH]c2ccccc12)NC(=O)[C@H](CC(=O)O)NC(=O)[C@H](Cc1cnc[nH]1)NC(=O)[C@H](CO)NC(=O)[C@H](Cc1c[nH]c2ccccc12)NC(=O)[C@H](Cc1cnc[nH]1)NC(=O)[C@@H]1CCC(=O)N1)C(=O)N1CCC[C@H]1C(=O)NCC(N)=O)C[C@@H]3O[C@H]1C[C@H](N)[C@H](O)[C@H](C)O1 ?
99
